Target: UniProt Q9NR96
Sequence (Q9NR96 26-1032): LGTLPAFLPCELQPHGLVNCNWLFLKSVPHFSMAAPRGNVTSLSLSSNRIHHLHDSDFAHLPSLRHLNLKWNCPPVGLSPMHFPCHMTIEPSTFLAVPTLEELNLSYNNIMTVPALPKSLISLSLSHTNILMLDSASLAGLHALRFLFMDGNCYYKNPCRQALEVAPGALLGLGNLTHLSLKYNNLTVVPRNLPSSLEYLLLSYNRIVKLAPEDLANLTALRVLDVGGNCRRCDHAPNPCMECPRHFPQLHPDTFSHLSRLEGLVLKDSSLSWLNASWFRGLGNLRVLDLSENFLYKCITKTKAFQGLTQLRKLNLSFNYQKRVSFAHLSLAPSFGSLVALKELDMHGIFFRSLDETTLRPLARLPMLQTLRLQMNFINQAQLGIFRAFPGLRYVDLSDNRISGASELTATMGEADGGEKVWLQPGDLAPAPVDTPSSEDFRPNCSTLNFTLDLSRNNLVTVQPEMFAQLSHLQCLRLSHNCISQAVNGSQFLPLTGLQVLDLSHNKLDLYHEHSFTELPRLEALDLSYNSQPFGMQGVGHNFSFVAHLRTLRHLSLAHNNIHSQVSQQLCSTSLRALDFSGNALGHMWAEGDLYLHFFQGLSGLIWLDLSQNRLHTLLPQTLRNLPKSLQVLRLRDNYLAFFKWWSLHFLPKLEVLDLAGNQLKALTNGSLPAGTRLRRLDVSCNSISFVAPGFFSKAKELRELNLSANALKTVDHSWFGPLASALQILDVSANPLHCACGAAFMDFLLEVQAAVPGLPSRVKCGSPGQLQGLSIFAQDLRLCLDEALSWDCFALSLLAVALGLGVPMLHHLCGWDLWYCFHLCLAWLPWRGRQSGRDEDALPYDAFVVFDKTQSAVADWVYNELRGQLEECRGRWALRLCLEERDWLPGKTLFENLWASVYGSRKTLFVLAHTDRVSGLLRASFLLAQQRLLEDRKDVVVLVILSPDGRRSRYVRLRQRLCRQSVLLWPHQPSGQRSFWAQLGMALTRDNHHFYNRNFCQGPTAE
Assay: HEK293-Blue-hTLR-9 cells assay (SEAP reporter, ODN2006 stimulation)
Details: HEK293-Blue-hTLR9 cells, ODN2006 ligand, 20 hrs incubation
Experimental: A stable HEK293-Blue-hTLR-9 cell line was purchased from InvivoGen (Cat. #: hkb-htlr9, San Diego, Calif., USA). These cells were originally designed for studying the stimulation of human TLR9 by monitoring the activation of NF-κB. […] The cell culture supernatant SEAP reporter activity was determined using QUANTI-Blue™ kit (Cat. #: rep-qb1, Invivogen, San Diego, Calif., USA) at a wavelength of 640 nm, a detection medium that turns purple or blue in the presence of alkaline phosphatase. […]
experimental_endpoint: IC50 (µM)

>>> df
                                   molecule  assay_result
0  C[C@@H]1CN(c2ccc(C#N)n3nccc23)C[C@H](CN2CCC23CNC3)O1            25
1  C[C@@H]1CN(c2ccc(C#N)n3nccc23)C[C@H](CN2CCC(N)CC2)O1          0.18
2  C[C@@H]1CN(c2ccc(C#N)n3ncc(F)c23)C[C@H](CN2CCCC3(CCNCC3)C2)O1         0.087

[P] C[C@@H]1CN(c2ccc(C#N)n3nccc23)C[C@H](CN2CC3CNCC3C2)O1 (some centres unmarked)
[Q] C[C@@H]1CN(c2ccc(C#N)n3nccc23)C[C@H](CN2CCCC3NCCCC32)O1 (some centres unmarked)
**Query** Would you kindly point out which of P and Q has the smaller IC50 figure? Let me know the label of the one you choose.
**Result** P
(P: 0.18 µM, Q: 2.2 µM)

[I] C[C@@H]1CN(c2ccc(C#N)n3nccc23)C[C@H](CN2CC[C@@H]3CNCC32)O1 (some centres unmarked)
[II] C[C@@H]1CN(c2ccc(C#N)n3nccc23)C[C@H](CN2CC3CCCNC3C2)O1 (some centres unmarked)
**Query** Would you kindly point out which of I and II has the smaller IC50 figure? Let me know the label of the one you choose.
**Result** II
